# test-details: Toxicity liver stage against HepG2, at 10uM
# Assay type: cell-based
# Set-up: test concentration 10 uM, cell line HepG2-A16-CD81EGFP
# study-conditions: human, HepG2-A16-CD81EGFP cells; read-out: INHIBITION
Field: cytotoxicity at 10 µM. Provide a value for each of the compounds that follow.
One number for each entry, in %.

Before answering, review these 8 worked examples.
CC(CC(=O)O)CC(=O)Nc1sc2c(c1C(N)=O)CCc1ccccc1-2 (stereo unspecified) :: 8.26
Oc1cc(-c2ccsc2)nc(C2CCN(Cc3cccnc3)CC2)n1 :: 2.95
O=C(Cn1ccc2c(Cl)cccc21)N1CCC2(CC1)OCCO2 :: 14.2
CN(C)C(=O)Cn1cc(C(=O)NCCc2ccc(Cl)cc2Cl)nn1 :: -2.35
c1cc2c(cc1Cn1cc(C3CCOC3)nn1)OCO2 (stereo unspecified) :: 3.86
CCc1n[nH]c(C2CN(C(=O)Cn3ccccc3=O)CCO2)n1 (stereo unspecified) :: -0.746
CC(=O)NCCC1CCCCN1S(=O)(=O)c1cccc(F)c1 (stereo unspecified) :: -155
O=C(c1ccc(F)cc1F)N(CC(F)(F)F)C1CCOCC1 :: 1.24

For each entry beneath this line, provide reported cytotoxicity at 10 µM.
1. CC(Nc1cnn(C)c(=O)c1Cl)c1ccc(F)c(F)c1 (stereo unspecified)
2. O=C(N1CCOCC1)[C@@]12CCO[C@@H]1CCN(Cc1ccccc1F)C2
3. COc1cc(CNC(=O)COC2CCCC2)ccc1O

(A)
31.3
2.99
-7.2

----------
# test-details: Toxicity liver stage against HepG2, at 10uM
# Type: cell-based
# Parameters: test concentration 10 uM, cell line HepG2-A16-CD81EGFP
# study-conditions: human, HepG2-A16-CD81EGFP cells; read-out: INHIBITION
Field: cytotoxicity at 10 µM. Provide a value for each of the molecules that follow.
One number for each entry, in %.

CC(C)C(C(=O)N1CCCN(Cc2cnn(C)c2)CC1)n1cncn1 (stereo not drawn) :: -4.52
COCC1CC2(CCN(C(=O)c3ccc(OC)c(Cl)c3)CC2)CO1 (stereo not drawn) :: 15.4
O=C(Nc1ccc2c(c1)OCO2)N1CCCC1c1ccco1 (stereo not drawn) :: -2.11

For each entry beneath this line, provide reported cytotoxicity at 10 µM.
1. Cc1c(Cl)cccc1S(=O)(=O)NCc1cnc(N(C)C)n1C
2. COc1ccnc(N2CCN(CC(=O)N3CCOCC3)CC2)n1
3. CCN(CC)C1CCN(C(=O)NCc2cccc(NC(C)=O)c2)C1 (stereo not drawn)
4. Cc1ccccc1OCCN(C)Cc1noc(CC(C)C)n1
5. O=S(=O)(NCC1OCCc2cn(Cc3ccccn3)nc21)C1CC1 (stereo not drawn)
6. O=C(NCC1(C(=O)O)CCC1)c1nnn(-c2ccc(F)cc2)c1C1CC1
7. CC(C1CC1)N(C(=O)CNc1ccc(C#N)cc1)C1CC1 (stereo not drawn)
8. Clc1cccnc1N1CCC(NCc2cccc3cn[nH]c23)C1 (stereo not drawn)

(A)
-6.31
-7.37
4.55
-6.99
-143
-14.8
-5.28
13.7

For each entry beneath this line, provide reported cytotoxicity at 10 µM.
1. C[C@@H]1CN(c2ccc(Cl)cn2)C[C@@]1(O)C1CC1
2. CC(C)NC(=O)CC(C)NCc1ccc(F)cc1Cl (stereo not drawn)
3. CC(c1ccc(F)c(F)c1)N(C)CCS(=O)(=O)CCC(N)=O (stereo not drawn)
4. CC(C)c1noc(CN2CCC(c3ccnn3CCO)CC2)n1
5. c1cnc(NCc2noc3c2CN(C2CCOC2)CC3)nc1 (stereo not drawn)

(A)
1. -2.81
2. -40.7
3. -52.2
4. -18.6
5. -3.71

For each entry beneath this line, provide reported cytotoxicity at 10 µM.
1. CC(=O)NCCNC(=O)NCCc1c(C)cc(C)cc1C
2. COC(=O)CCNC(=O)c1nnn(-c2ccccc2)c1C(F)(F)F
3. COC(=O)c1ccc(Cl)c(NS(=O)(=O)c2cn(C)cn2)c1
4. CC(C)c1nc(CN2CCN(C(=O)CC3CCCCC3)CC2)no1
5. Cc1cnn(CCNCC(O)c2ccc(C(F)(F)F)cc2)c1 (stereo not drawn)
6. COc1ccc2c(c1)Cc1c-2nc(N)c(C#N)c1C1CCOC1 (stereo not drawn)
7. CC(NC(=O)NCc1cccc(F)c1)(C(=O)O)c1ccco1 (stereo not drawn)
8. CCc1c(C)nc(C2CCCN2C(=O)c2cc(C)no2)nc1O (stereo not drawn)

(A)
[6.02, -4.27, 11.9, -0.95, 4.48, 24.4, -3.33, -5.75]

For each entry beneath this line, provide reported cytotoxicity at 10 µM.
1. CCN(C(=O)c1cc(C)nc2ccccc12)C1CC(=O)NC1=O (stereo not drawn)
2. Cc1csc(CCCNc2ccc(S(N)(=O)=O)cc2C#N)n1

(A)
[3.04, -49]

For each entry beneath this line, provide reported cytotoxicity at 10 µM.
1. CSC(C)C(=O)NCCCc1cc(N)n(-c2ccccc2)n1 (stereo not drawn)
2. Cc1ccccc1SC1CCN(C(=O)[C@@H]2C[C@@H](N)CN2)CC1
3. c1cnn(CC2CN(Cc3nnc(C4CC4)o3)CCO2)c1 (stereo not drawn)
4. Cc1cc2[nH]c(CN3CCOC(c4ccc(F)cc4)C3)cc(=O)n2n1 (stereo not drawn)
5. COc1ccc(-c2nccnc2C2CCN(C(C)=O)CC2)cc1

(A)
[3.25, -7.69, -5.09, -4.89, -4.43]

For each entry beneath this line, provide reported cytotoxicity at 10 µM.
1. COCCN1CCCC(O)(CN2CCN(c3cc(C)ccn3)CC2)C1=O (stereo not drawn)
2. CCC(CC)N(C)S(=O)(=O)c1ccc(CCNC(C)=O)s1
3. Cn1cc(CN(Cc2ccccc2)CC(O)c2cccs2)cn1 (stereo not drawn)
4. CC1CCCN1C1CCN(C(=O)c2cccc(-c3ccoc3)c2)CC1 (stereo not drawn)
5. Cc1cc(C)n(C2CCCN(C(=O)c3c(C)noc3C)C2)n1 (stereo not drawn)
6. CCCc1noc(CN(C)C(=O)C2COc3ccccc3C2)n1 (stereo not drawn)
7. CC(C)c1nnc2ccc(N3CCC(C(N)=O)CC3)nn12

(A)
[0.622, -3.45, -8.59, -9.63, -6.41, -7.01, 8.63]

For each entry beneath this line, provide reported cytotoxicity at 10 µM.
1. c1cn(Cc2nnc(C3CCN(C4CCOCC4)CC3)n2C2CC2)cn1
2. NC(=O)CN1CCCN(C(=O)c2ccn(-c3cccc(F)c3)n2)CC1
3. O=C(CCNC(=O)c1cccc(OC(F)F)c1)Nc1cccnc1
4. COc1ccc(CN2CCSCC2)c(OC)c1
5. N#Cc1cc(NS(=O)(=O)c2ccc(C(=O)O)cc2F)ccc1F
6. O=C(O)c1cc2c(nc1-c1ccncc1)CCN(C1CCOC1)CC2 (stereo not drawn)
7. CCN(C(=O)CN1CCCC1c1cc(C)no1)c1ccccc1C (stereo not drawn)

(A)
1: 0.442; 2: 14.3; 3: 0.258; 4: 7.94; 5: -10.9; 6: 9.34; 7: -0.264

For each entry beneath this line, provide reported cytotoxicity at 10 µM.
1. O=C(c1cnccn1)N1C[C@H]2CC[C@@H](C1)N(C(=O)CCc1ccsc1)C2
2. COC[C@@]12CCO[C@@H]1CCN(C(=O)COc1ccc(C)cc1)C2
3. COc1ccc2nnc(CCCC(=O)NCCc3ccccc3)n2n1

(A)
3.24
1.39
-5.11

----------
Field: cytotoxicity at 10 µM. Provide a value for each of the compounds that follow.
# test-details: Toxicity liver stage against HepG2, at 10uM
# Type: cell-based
# Set-up: test concentration 10 uM, cell line HepG2-A16-CD81EGFP
# study-conditions: human, HepG2-A16-CD81EGFP cells; read-out: INHIBITION
One number for each entry, in %.

CCOC(=O)CCNC(=O)N1CCN(c2nc3ccccc3n2C)CC1 :: 4.88
COc1cc(CNCc2ccc(NC(=O)NC(C)C)cc2)cc(OC)c1 :: 0.347

For each entry beneath this line, provide reported cytotoxicity at 10 µM.
1. Cc1nc[nH]c1C(=O)NCc1cccnc1N(C)C1CCCCC1
2. c1ccc(-c2nnn3c2COC(CNCC2CCOCC2)C3)cc1 (stereo unspecified)
3. Fc1ccccc1CN1C[C@@H]2OCCN(c3ncccn3)[C@@H]2C1
4. CCCc1nc(CN2CCc3c(ncn3C3CC3)C2)cs1
5. C/N=C1/c2cc3cc(OC)ccc3n2CCN1Cc1ccccc1
6. O=C1CC2(CCCC2)C(=O)N1CC(O)COCc1ccccc1F (stereo unspecified)
7. Cn1cc(-c2cnc(N3CCOCC3)nc2)cc1C(=O)NC1CC1
8. COc1ccccc1CNC(=O)Cn1ncc2c1c(C)nn2C

(A)
-4.12
11
-74
-0.0225
69.7
0.927
-80.4
10.6

(Q) So what does the record say about cytotoxicity at 10 µM for CN(C)C(=O)CN1CC=C(c2cnn(Cc3ccccc3)c2)CC1 ?
(A) -6.12
